Would you kindly list Cell viability for each of these compounds?
tested on: 293T cells; assay: Cell viability assay (CCK-8) with LNP preparations of Fluc-mRNA; format: cell-based; details: LNP with 1.5 μg Fluc-mRNA, 24 hours, CCK-8
Hi! Could you send only the number? It should be in %, unit omitted.

Known value: 293T cells Cell viability of the compound CCCCCCCCCCOC(=O)CCCN1CCN(CCCCCC(=O)OCC(CCCCCCC)CCCCCCCC)CC1 (stereo not shown) [YK-501, reference compound] equals 63

Known value: 293T cells Cell viability of the compound CCCCCCCCCCOC(=O)CCCN(CCCCCC(=O)OCCC(CCCCCC)CCCCCC)CCNC(CO)(CO)CCc1ccc(CCCCCCCC)cc1 equals 92

Known value: 293T cells Cell viability of the compound CCCCCCCCCCCCSSCCNC(=O)CCN1CCN(CCCCCC(=O)OCCC(CCCCCC)CCCCCC)CC1 [YK-506, reference compound] equals 90

Known value: 293T cells Cell viability of the compound CCCCCCCCCCCCC(O)CN(C)CCCCCC(=O)OCC(CCCCCC)CCCCCCCC (stereo not shown) [HHMA, reference compound] equals 77

* * *

assay: Particle size and polydispersity index (PDI) of lipid nanoparticles, dynamic light scattering; type: physicochemical; settings: LNP preparation with the named cationic lipid; 90° scattering angle, 25° C
Would you kindly list PDI for each of these compounds?
Hi! Could you send only the number? It should be in %, unit omitted.

Recorded result, CCCCCCCCCCCOC(=O)CCCCCN(CCO)CCCCCCCC(=O)OC(CCCCCCCC)CCCCCCCC [SM-102, reference compound] , PDI: 13.5

Recorded result, CCCCCCCCCCOC(=O)CCCN1CCN(CCCCCC(=O)OCC(CCCCCCC)CCCCCCCC)CC1 (centres unmarked) [YK-501, reference compound] , PDI: 13.3

Recorded result, CCCCCCCCCCCCCCNC(=O)CCCCCNC(CO)(CO)CCc1ccc(CCCCCCCC)cc1 , PDI: 16.2

Recorded result, CCCCCCCCCCC(CCCCCCCCCC)CCCOC(=O)CCCCCNC(CO)(CO)CCc1ccc(CCCCCCCC)cc1 , PDI: 17.4

Recorded result, CCCCCCCCc1ccc(CCC(CO)(CO)NCCCCCCC(=O)OCC(CCCCCCCC)CCCCCCCC)cc1 , PDI: 10.4

Recorded result, CCCCC/C=C\C/C=C\CCCCCCCCC(CCCCCCCC/C=C\C/C=C\CCCCC)OC(=O)CCCN(C)C [MC3, reference compound] , PDI: 15.7

Recorded result, CCCCCCCCC(CCCCCC)COC(=O)CCCCCN(CCCCCC(=O)OCC(CCCCCC)CCCCCCCC)CCCCC(=O)OCc1ccccc1.I (centres unmarked) [I-1, reference compound] , PDI: 16.2

Recorded result, CCCCCCCCCCCCSSCCNC(=O)CCN1CCN(CCCCCC(=O)OCCC(CCCCCC)CCCCCC)CC1 [YK-506, reference compound] , PDI: 12.2
